The entries below are paired with their reported solubility.
- ASSAY_METHOD_TEXT: Solubility limit in water (gradual water addition, vortex, light microscopy)
Residues, ends and D or L forms follow the SMILES beside them.
OBSERVED_PROPERTY: solubility

                                   compound        result
0  N[C@@H](Cc1ccccc1)C(=O)N[C@@H](Cc1ccc(O)cc1)C(=O)N[C@@H](Cc1ccccc1)C(=O)O [FYF, reference compound] (H-Phe-Tyr-Phe-OH)     < 5 mg/mL
1  N[C@@H](Cc1ccc(O)cc1)C(=O)N[C@@H](Cc1ccc(O)cc1)C(=O)N[C@@H](Cc1ccc(O)cc1)C(=O)O [YYY, Tyr-Tyr-Tyr] (H-Tyr-Tyr-Tyr-OH)  > 1000 mg/mL
2  N[C@@H](Cc1ccccc1)C(=O)N[C@@H](Cc1ccc(O)cc1)C(=O)N[C@@H](Cc1ccc(O)cc1)C(=O)O [FYY] (H-Phe-Tyr-Tyr-OH)  > 1000 mg/mL
3  N[C@@H](Cc1ccc(O)cc1)C(=O)N[C@@H](Cc1ccccc1)C(=O)N[C@@H](Cc1ccccc1)C(=O)O [YFF] (H-Tyr-Phe-Phe-OH)   > 250 mg/mL
4  N[C@@H](Cc1ccccc1)C(=O)N[C@@H](Cc1ccccc1)C(=O)N[C@@H](Cc1ccc(O)cc1)C(=O)O [FFY] (H-Phe-Phe-Tyr-OH)   > 250 mg/mL
5  N[C@@H](Cc1ccccc1)C(=O)N[C@@H](Cc1ccc(O)cc1)C(=O)O [FY] (H-Phe-Tyr-OH)  > 1000 mg/mL
6  N[C@@H](Cc1ccc(O)cc1)C(=O)N[C@@H](Cc1ccc(O)cc1)C(=O)N[C@@H](Cc1ccccc1)C(=O)O [YYF] (H-Tyr-Tyr-Phe-OH)  > 1000 mg/mL
7  N[C@@H](Cc1ccccc1)C(=O)N[C@@H](Cc1ccccc1)C(=O)N[C@@H](Cc1ccccc1)C(=O)O [FFF, reference compound] (H-Phe-Phe-Phe-OH)     < 1 mg/mL
8  N[C@@H](Cc1ccc(O)cc1)C(=O)N[C@@H](Cc1ccccc1)C(=O)N[C@@H](Cc1ccc(O)cc1)C(=O)O [YFY] (H-Tyr-Phe-Tyr-OH)  > 1000 mg/mL

###

- ASSAY_METHOD_TEXT: physchem
- EXPERIMENTAL_PARAMETERS: water
Residues, ends and D or L forms follow the SMILES beside them.
OBSERVED_PROPERTY: solubility

                                   compound        result
0  N[C@@H](Cc1ccc(O)cc1)C(=O)N[C@@H](Cc1ccc(O)cc1)C(=O)O [YY] (H-Tyr-Tyr-OH)  > 1000 mg/mL
1  N[C@@H](Cc1ccc(O)cc1)C(=O)N[C@@H](Cc1ccccc1)C(=O)O [YF] (H-Tyr-Phe-OH)  > 1000 mg/mL
